- measurement-target: T1, biotin-labeled cynomolgus monkey CD137 fused to human IgG1 Fc fragment (cynomolgus monkey; human, UniProt Q07011 24-186, limits assumed, biotin-labeled)
- T1 construct: also called cyno CD137-Fc; not shown: human IgG1 Fc fragment
- T1 chain: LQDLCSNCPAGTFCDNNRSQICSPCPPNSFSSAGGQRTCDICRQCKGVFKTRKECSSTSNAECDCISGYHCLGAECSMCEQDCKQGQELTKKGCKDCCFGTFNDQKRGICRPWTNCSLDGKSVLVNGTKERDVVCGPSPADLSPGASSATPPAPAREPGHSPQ
- procedure-details: ELISA, IgG
measurement-type: binding result

Worked cases, answers included:
>  <binder>
dBBDu193 (antibody, IgG1, V domains shown, IgG1) VH: QVQLVESGGGLVQPGRSLRLSCAASGFTFSNAWMHWVRQAPGKGLEWVAQIKDRSNQYATYYAPSVKGRFTISRDDSKNSIYLQMNSLKTEDTAVYYCHYVHYSAASTLLPSFGVDAWGQGTTVTVSS VL: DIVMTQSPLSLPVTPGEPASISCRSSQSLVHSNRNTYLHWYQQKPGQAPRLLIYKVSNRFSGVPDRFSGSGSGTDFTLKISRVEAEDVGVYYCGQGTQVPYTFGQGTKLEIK

>  <value>
binds

$$$$
>  <binder>
dBBDu222 (antibody, IgG1, V domains shown, IgG1) VH: QVQLVESGGGLVQPGRSLRLSCAASGFTISSAWMHWVRQAPGKGLEWVAQIKDRANGYAAYYAPSVKGRFTISRDDSKNSIYLQMNSLKTEDTAVYYCRYVHYATAYDGFYGFGVDAWGQGTTVTVSS VL: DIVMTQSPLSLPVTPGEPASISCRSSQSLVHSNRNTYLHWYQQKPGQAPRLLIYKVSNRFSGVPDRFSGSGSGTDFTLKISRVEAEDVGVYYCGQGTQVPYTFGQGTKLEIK

>  <value>
binds

$$$$
>  <binder>
dBBDu205 (antibody, IgG1, V domains shown, IgG1) VH: QVQLVESGGGLVQPGRSLRLSCAASGFTFSNAWMHWVRQAPGKGLEWVAQIKDRSQLYAAYYAPSVKGRFTISRDDSKNSIYLQMNSLKTEDTAVYYCHYVHYASASTVLPAFGVDAWGQGTTVTVSS VL: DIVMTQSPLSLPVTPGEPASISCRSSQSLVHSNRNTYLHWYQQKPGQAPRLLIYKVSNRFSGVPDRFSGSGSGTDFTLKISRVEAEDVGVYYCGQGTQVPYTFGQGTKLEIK

>  <value>
binds

$$$$
>  <binder>
dBBDu167 (antibody, IgG1, V domains shown, IgG1) VH: QVQLVESGGGLVQPGRSLRLSCAASGFTFSNAWMHWVRQAPGKGLEWVAQIKDKGNLYAAYYAPSVKGRFTISRDDSKNSIYLQMNSLKTEDTAVYYCHYVHYASAGGGLPGFGVDAWGQGTTVTVSS VL: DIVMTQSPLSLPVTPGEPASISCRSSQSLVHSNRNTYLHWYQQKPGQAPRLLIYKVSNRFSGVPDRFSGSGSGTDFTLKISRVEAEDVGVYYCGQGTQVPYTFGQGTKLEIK

>  <value>
binds

$$$$
>  <binder>
dBBDu204 (antibody, IgG1, V domains shown, IgG1) VH: QVQLVESGGGLVQPGRSLRLSCAASGFTFSNAWMHWVRQAPGKGLEWVAQIKDRSNNYATYYAESVKGRFTISRDDSKNSIYLQMNSLKTEDTAVYYCHYVHYASASTVLPAFGVDAWGQGTTVTVSS VL: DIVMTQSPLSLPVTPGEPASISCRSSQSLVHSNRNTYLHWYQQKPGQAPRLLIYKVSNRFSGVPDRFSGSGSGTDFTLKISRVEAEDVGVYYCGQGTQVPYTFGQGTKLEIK

>  <value>
binds

$$$$

// binding result value for dBBDu139 (antibody, IgG1, V domains shown, IgG1) VH: QVQLVESGGGLVQPGRSLRLSCAASGFTFSNAWMHWVRQAPGKGLEWVAQIKDRGNAYNAYYAESVKGRFTISRDDSKNSIYLQMNSLKTEDTAVYYCRFVHYRHPLLHIQYGVDAWGQGTTVTVSS VL: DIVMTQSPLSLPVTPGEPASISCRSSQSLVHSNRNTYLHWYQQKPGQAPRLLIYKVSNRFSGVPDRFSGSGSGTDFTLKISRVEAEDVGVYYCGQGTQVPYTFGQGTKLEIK : binds

Measured binding result of dBBDu197 (antibody, IgG1, V domains shown, IgG1) VH: QVQLVESGGGLVQPGRSLRLSCAASGFTFSNAWMHWVRQAPGKGLEWVAQIKDRSNAYAAYYAPSVKGRFTISRDDSKNSIYLQMNSLKTEDTAVYYCHYVHYASASTVLPAFGVDAWGQGTTVTVSS VL: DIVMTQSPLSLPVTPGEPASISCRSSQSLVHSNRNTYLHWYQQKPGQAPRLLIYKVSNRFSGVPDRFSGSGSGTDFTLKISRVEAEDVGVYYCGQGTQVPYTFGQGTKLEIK : binds

Entry under test: dBBDu189 (antibody, IgG1, V domains shown, IgG1) VH: QVQLVESGGGLVQPGRSLRLSCAASGFTFSNAWMHWVRQAPGKGLEWIAQIKDRSNQYATYYAPSVKGRFTISRDDSKNSIYLQMNSLKTEDTAVYYCHYVHYAQASSLLPSFGVDAWGQGTTVTVSS VL: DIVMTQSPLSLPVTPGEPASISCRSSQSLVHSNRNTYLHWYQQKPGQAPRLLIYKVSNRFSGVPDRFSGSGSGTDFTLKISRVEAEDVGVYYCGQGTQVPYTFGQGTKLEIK . Its binding result was binds

// sample dBBDu179 (antibody, IgG1, V domains shown, IgG1) VH: QVQLVESGGGLVQPGRSLRLSCAASGFTFSNAWMHWVRQAPGKGLEWVAQIKDRSNQYATYYAPSVKGRFTISRDDSKNSIYLQMNSLKTEDTAVYYCHYVHYASASTVLPAFGVDAWGQGTTVTVSS VL: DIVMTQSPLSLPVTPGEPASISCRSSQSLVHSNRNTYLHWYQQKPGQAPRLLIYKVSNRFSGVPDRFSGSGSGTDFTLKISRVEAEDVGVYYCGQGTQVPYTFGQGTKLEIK , its binding result was binds

response.value for dBBDu217 (antibody, IgG1, V domains shown, IgG1) VH: QVQLVESGGGLVQPGRSLRLSCAASGFTFSNAWMHWVRQAPGKGLEWVAQIKDRQQGYATYYAPSVKGRFTISRDDSKNSIYLQMNSLKTEDTAVYYCRFVHYHLAGYGYYGVDAWGQGTTVTVSS VL: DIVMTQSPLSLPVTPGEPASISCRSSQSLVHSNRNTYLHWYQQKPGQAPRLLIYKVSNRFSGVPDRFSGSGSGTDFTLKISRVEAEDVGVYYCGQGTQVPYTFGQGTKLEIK (field: binding result) = binds
